- assay_notes: Selectivity index, ratio of CC50 for African green monkey Vero cells to MIC for Mycobacterium tuberculosis 91
- Type: toxicity
Item-by-item account of selectivity ratio

O=C(NN1C(=O)c2ccccc2C1=O)c1cc2c([nH]c3ccccc32)c(-c2ccccc2)n1
7.2

[ask] Supply measured selectivity ratio of `O=C(NN1C(=O)CCC1=O)c1cc2c([nH]c3ccccc32)c(-c2ccc(F)cc2)n1` in your reply.
[reply] 2.16

[ask] Supply measured selectivity ratio of `O=C(NN1C(=O)c2ccccc2C1=O)c1cc2c([nH]c3ccccc32)c(-c2ccc(F)cc2)n1` in your reply.
[reply] 6.1

[ask] Supply measured selectivity ratio of `COC(=O)c1cc2c([nH]c3ccccc32)c(-c2ccc(N(C)C)cc2)n1` in your reply.
[reply] 6.96

[ask] Supply measured selectivity ratio of `O=C(NN1C(=O)c2ccccc2C1=O)c1cc2c([nH]c3ccccc32)c(-c2cccc([N+](=O)[O-])c2)n1` in your reply.
[reply] < 2.6

* * *

Item-by-item account of selectivity ratio
- assay_notes: Selectivity index, ratio of CC50 for African green monkey Vero cells to MIC for Mycobacterium tuberculosis 71A
- Type: toxicity
Returns: the value as a bare number; no unit string appended.

O=C(NN1C(=O)c2ccccc2C1=O)c1cc2c([nH]c3ccccc32)c(-c2ccccc2)n1
7.2
O=C(NN1C(=O)c2ccccc2C1=O)c1cc2c([nH]c3ccccc32)c(-c2ccc(F)cc2)n1
6.1

Moving on to another compound below.
[ask] Supply measured selectivity ratio of `O=C(NN1C(=O)CCC1=O)c1cc2c([nH]c3ccccc32)c(-c2ccc(F)cc2)n1` in your reply.
[reply] 2.16

* * *

Item-by-item account of selectivity ratio
- assay_notes: Selectivity index, ratio of CC50 for African green monkey Vero cells to MIC for Mycobacterium tuberculosis 73A
- Format: toxicity
Returns: the value as a bare number; no unit string appended.

// below: answered molecules
O=C(NN1C(=O)c2ccccc2C1=O)c1cc2c([nH]c3ccccc32)c(-c2ccc(F)cc2)n1
12.2
O=C(NN1C(=O)CCC1=O)c1cc2c([nH]c3ccccc32)c(-c2ccc(F)cc2)n1
8.64

[ask] Supply measured selectivity ratio of `O=C(NN1C(=O)c2ccccc2C1=O)c1cc2c([nH]c3ccccc32)c(-c2cccc([N+](=O)[O-])c2)n1` in your reply.
[reply] 5.2

[ask] Supply measured selectivity ratio of `COC(=O)c1cc2c([nH]c3ccccc32)c(-c2ccc(N(C)C)cc2)n1` in your reply.
[reply] 13.9

[ask] Supply measured selectivity ratio of `O=C(NN1C(=O)c2ccccc2C1=O)c1cc2c([nH]c3ccccc32)c(-c2ccccc2)n1` in your reply.
[reply] 14.4

* * *

Item-by-item account of selectivity ratio
- assay_notes: Selectivity index, ratio of CC50 for African green monkey Vero cells to MIC for Mycobacterium tuberculosis 3614
- Assay type: toxicity

// below: answered compounds
COC(=O)c1cc2c([nH]c3ccccc32)c(-c2ccc(N(C)C)cc2)n1
13.5
O=C(NN1C(=O)c2ccccc2C1=O)c1cc2c([nH]c3ccccc32)c(-c2cccc([N+](=O)[O-])c2)n1
5.2
O=C(NN1C(=O)c2ccccc2C1=O)c1cc2c([nH]c3ccccc32)c(-c2ccccc2)n1
14.4
O=C(NN1C(=O)c2ccccc2C1=O)c1cc2c([nH]c3ccccc32)c(-c2ccc(F)cc2)n1
12.2

[ask] Supply measured selectivity ratio of `O=C(NN1C(=O)CCC1=O)c1cc2c([nH]c3ccccc32)c(-c2ccc(F)cc2)n1` in your reply.
[reply] 4.32
